Below, IC50 values reported for ROCK2 (Homo sapiens, UniProt O75116) across several publications.
Readout Name: IC50 (nM)

INSERT INTO measurements (compound, system_tested, readout_name, modifier, result_value) VALUES
  ('CC(C)NC(=O)COc1ccc(-n2ccc(Nc3ccc4[nH]ncc4c3Cl)n2)cc1F', 'ROCK2 (Homo sapiens, UniProt O75116)', 'IC50', '<', 300),
  ('O=C(NCc1ccccc1)c1ccc(-c2cn[nH]c2)cc1CCO', 'ROCK2 (Homo sapiens, UniProt O75116)', 'IC50', '=', 6510),
  ('CN(C(=O)c1cc2ccc(-c3nccc(Nc4ccc(-c5cn[nH]c5)cc4)n3)cc2[nH]1)C1CCOCC1', 'ROCK2 (Homo sapiens, UniProt O75116)', 'IC50', '=', 341),
  ('CCC1NC(=O)N([C@H]2C[C@@]3(C[C@H](Oc4nc(C5CC5)sc4C(N)=O)C3)C2)C1=O (stereo partly shown)', 'ROCK2 (Homo sapiens, UniProt O75116)', 'IC50', '=', 1870),
  ('COc1cc(CN2CCC(C(=O)N3CCC4(CC3)CCN(c3ccc(-c5cn[nH]c5)c(OC)c3)C4=O)CC2)ccc1F', 'ROCK2 (Homo sapiens, UniProt O75116)', 'IC50', '=', 2470),
  ('Cn1c(C(=O)N2CC(F)(F)C2)cc2ccc(-c3ncc(F)c(Nc4ccc(-c5cn[nH]c5)cc4)n3)cc21', 'ROCK2 (Homo sapiens, UniProt O75116)', 'IC50', '=', 12),
  ('CN1CC(NC(=O)c2cccc(CNC(=O)N3CCc4cc(-c5cn[nH]c5)c(F)cc43)c2)C1', 'ROCK2 (Homo sapiens, UniProt O75116)', 'IC50', '≤', 50);
